- Test system: SNK-6 (IL-2 2.5 ng/mL);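 further: normalised to DMSO-only wells as negative and benzethonium chloride as positive control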
- experiment: percent inhibition of viability; higher = more inhibition
- test-context: 72 h; 250 nM
Lab note: anything with percent inhibition of viability below 10% is marked label 1; values at 10% or higher are marked label 0.

Ask: For CCNC(=O)Nc1ccc(-c2nc3c(c(N4CCOC[C@@H]4C)n2)CCN(C2COC2)C3)cc1 [RG-7603] (max concentration tested 2500 nM) , is the recorded percent inhibition of viability below the cut-off of 10%?
Reply: label 0

Ask: For CCCNC(=O)Nc1ccc(Oc2ncnc3cc(OC)c(OC)cc23)cc1Cl [KRN-633] (max concentration tested 2500 nM) , is the recorded percent inhibition of viability below the cut-off of 10%?
Reply: label 1

Ask: For CN1CCN(C2CCN(C(=O)Nc3cc(Oc4ccc(NC(=O)C5(C(=O)Nc6ccc(F)cc6)CC5)c(F)c4)ccn3)CC2)CC1 [Golvatinib] (max concentration tested 2500 nM) , is the recorded percent inhibition of viability below the cut-off of 10%?
Reply: label 1

Ask: For COc1cc2nccc(Oc3ccc(NC(=O)NC4CC4)c(Cl)c3)c2cc1C(N)=O [Lenvatinib] (max concentration tested 2500 nM) , is the recorded percent inhibition of viability below the cut-off of 10%?
Reply: label 1

Ask: For CCOc1cc2ncc(C#N)c(Nc3ccc(F)c(Cl)c3)c2cc1NC(=O)/C=C/CN(C)C [Pelitinib] (max concentration tested 2500 nM) , is the recorded percent inhibition of viability below the cut-off of 10%?
Reply: label 0
